From: ChEMBL document CHEMBL1148117

Quick reference: IC50 of the listed items.
System: HeLa
protocolSummary: Cytotoxicity against human HeLa cells assessed as inhibition of colony formation after 5 to 8 days by colony assay
Assay type: functional, cell-based

{"molSmiles": "CO[C@@]12[C@H](COC(N)=O)C3=C(C(=O)C(C)=C(N)C3=O)N1C[C@@H]1N[C@@H]12", "inequalitySign": "=", "IC50 [nM]": 68}
{"molSmiles": "O=c1oc2ccccc2c2c(-c3ccc(O)c(O)c3)c3c4cc(O)c(O)cc4ccn3c12", "inequalitySign": "=", "IC50 [nM]": 1100}
{"molSmiles": "COc1ccc(-c2c3c4ccccc4oc(=O)c3n3ccc4cc(OC)c(OC)cc4c23)cc1OC", "inequalitySign": "=", "IC50 [nM]": 5700}
{"molSmiles": "COc1ccc(-c2c3c4cc5c(cc4oc(=O)c3n3ccc4cc(OC)c(OC)cc4c23)OCO5)cc1OC", "inequalitySign": ">", "IC50 [nM]": 100000}

* * *

System: MDCK
protocolSummary: Cytotoxicity against MDCK cells assessed as inhibition of colony formation after 5 to 8 days by colony assay
Type: cell-based
testContext: Canis lupus familiaris
pIC50: −log10 of the molar value.
reportedMetric: pIC50

{"compound": "COc1ccc(-c2c3c4ccccc4oc(=O)c3n3ccc4cc(OC)c(OC)cc4c23)cc1OC", "resultNumber": 5.25}
{"compound": "COc1cc(-c2c3c4cc(OC)c(O)cc4oc(=O)c3n3ccc4cc(O)c(OC)cc4c23)ccc1O [LAMELLARIN D]", "resultNumber": 7.65}
